Values from patent US20240150440A1

# ASSAY TARGET: SARS-CoV-2 spike protein on pseudotyped lentivirus (Wuhan Reference Pseudovirus) (SARS-CoV-2, UniProt P0DTC2 14-1273)
# ASSAY OVERVIEW: cell-based or functional assay
Note to self: use fulfilled only for Pseudovirus neutralization IC50 readings below 7 nM; a reading exactly at 7 nM still gets not fulfilled.

Hello, I'm reviewing records and need to know if Pseudovirus neutralization IC50 of PP1145 MBP-5HVZ-PAPA-R2d-A6-H6 (VHH, Form: Dimer) VHH: QVQLVESGGGLVQPGGSLRLSCAASGSGASIGAMHWFRQAPGKGREWVASITSAGNTYYGDSVKGRFTISRDNAKNTVYLQMNSLKPEDTAVYYCNALAGANYESQWEEYNYWGQGTQVTVSS is below 7 nM. Could you check?
not fulfilled

Hello, I'm reviewing records and need to know if Pseudovirus neutralization IC50 of PP1151 MBP-5HVZ-PAPA-R5d-B5-H6 (VHH, Form: Dimer) VHH: QVQLVESGGGLVQPGGSLRLSCAASGSRDSIVAMHWYRQAPGKGREGVAGITSRWVTYYADSVKGRFTISRDNAKNTVYLQMNSLKPEDTAVYYCNAPVYYDTEWYDIWGQGTQVTVSS is below 7 nM. Could you check?
not fulfilled

Hello, I'm reviewing records and need to know if Pseudovirus neutralization IC50 of PP1136 MBP-4B0F-PAPA-R5a-C5-H6 (VHH, Form: Heptamer) VHH: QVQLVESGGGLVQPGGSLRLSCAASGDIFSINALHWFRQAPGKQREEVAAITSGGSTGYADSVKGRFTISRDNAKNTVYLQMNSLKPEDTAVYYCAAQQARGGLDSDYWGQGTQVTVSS is below 7 nM. Could you check?
fulfilled

Hello, I'm reviewing records and need to know if Pseudovirus neutralization IC50 of PP1154 MBP-5HVZ-PAPA-R5d-G1-H6 (VHH, Form: Dimer) VHH: QVQLVESGGGLVQPGGSLRLSCAASGSIFGINDVHWFRQAPGKEREFVATITNGLSARYKDSVKGRFTISRDNAKNTVYLQMNSLKPEDTAVYYCAAQVYITTYELYDYWGQGTQVTVSS is below 7 nM. Could you check?
not fulfilled

Hello, I'm reviewing records and need to know if Pseudovirus neutralization IC50 of PP1152 MBP-5HVZ-PAPA-R5d-B6-H6 (VHH, Form: Dimer) VHH: QVQLVESGGGLVQPGGSLRLSCAASGRILAANIVHWYRQAPGKEREGVAGITSGGGSYYADSVKGRFTISRDNAKNTVYLQMNSLKPEDTAVYYCNALGLGQSSLYRSADPYDSWGQGTQVTVSS is below 7 nM. Could you check?
fulfilled

Hello, I'm reviewing records and need to know if Pseudovirus neutralization IC50 of PP1134 MBP-4B0F-PAPA-R2d-D3-H6 (VHH, Form: Heptamer) VHH: QVQLVESGGGLVQPGGSLRLSCAASGHIFSINNAAWVRQAPGKSREGVATIHSGGGTYYSDSVKGRFTISRDNAKNTVYLQMNSLKPEDTAVYYCNAEVSTGAGSRGRVSDVYWGQGTQVTVSS is below 7 nM. Could you check?
fulfilled
